IC50 (µg/mL), pseudovirus neutralization values by entry
target: HIV-1 Env of isolate MGRM-A-004 (HIV-1); test: cell-based or functional assay

Fill in IC50 (µg/mL), pseudovirus neutralization for record PGT-123 (antibody, V domains shown) VH: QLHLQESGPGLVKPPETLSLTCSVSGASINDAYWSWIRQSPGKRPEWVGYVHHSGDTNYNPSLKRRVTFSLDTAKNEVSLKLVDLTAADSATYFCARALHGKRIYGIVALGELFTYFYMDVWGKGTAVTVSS VL: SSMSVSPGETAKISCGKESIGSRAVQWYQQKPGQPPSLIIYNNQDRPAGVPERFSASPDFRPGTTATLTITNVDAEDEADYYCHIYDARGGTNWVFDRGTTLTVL > 50 µg/mL
